Source of measurements: PubChem BioAssay (NCI)

System: OVCAR-4 ovarian
Test: NCI-60 one-dose screen, 48 h (100 = growth as untreated, 0 = no growth, -100 = all killed)
Conditions: 10 µM unless noted
Experimental: Growth inhibition of the OVCAR-4 human tumor cell line is measured as a screen for anti-cancer activity. Cells are grown in 96 well plates and exposed to the test compound for 48 hours. Compounds are tested at a single concentration, which is 10^-5 M for most compounds. The reported endpoint is percent growth (GI% or GIPRCNT), where numbers from 0 - 100% represent growth inhibition, and numbers from -100% - 0 represent cell death. For example, a value of 40 represents 60% growth inhibition. […]
Compounds without any hit were thinned out: in the full panel of roughly 83,000, 20% have a hit.
Note to self: values exactly at 10% are satisfied. So growth at or above 10% is satisfied, below is not satisfied.

COc1ccc(NC([Se])=NC23CC4CC(CC(C4)C2)C3)cc1 :: not satisfied
C/C(CC(C)(C)N1CC1)=N\NC(=O)Nc1cccc2ccccc12 :: satisfied
COc1cc2c(cc1OCCCCCn1c(-c3ccco3)nc3ccccc31)N=C[C@@H]1CCCN1C2=O :: satisfied
N#C[Se]CCN1C(=O)c2ccccc2C1=O :: satisfied
CCCCC1(CCC)C(=O)NC(=S)NC1=O :: satisfied
CS(=O)(=O)CCN1CC2CCCC(C2)C1 :: satisfied
COc1ccc(/C=C\c2cc(OC)c(OC)c(OC)c2)cc1OCC(=O)Nc1nc2ccc(C(F)(F)F)cc2s1 :: satisfied
CCCCCCCCC(CO)NCCc1ccccc1 (stereo unspecified) :: satisfied
CC12CCC=CC1CCC1C2CCC2(C)C(c3ccc(=O)oc3)CCC12O (stereo unspecified) :: not satisfied
O=C(CC1(O)C(=O)N(Cc2ccccc2)c2ccc(F)cc21)c1ccc(C(=O)NCC2CCC3(CC2)OOC2(CCCCC2)OO3)cc1 (stereo unspecified) :: not satisfied
O=C(c1ccccc1O)c1[nH]c(Cl)c(Cl)c1-n1c(C(=O)c2ccccc2O)cc(Cl)c1Cl :: satisfied

---

test system: SNB-75 CNS; test: NCI-60 one-dose screen, 48 h (100 = growth as untreated, 0 = no growth, -100 = all killed); conditions: 10 µM unless noted
This is part of a sample that, as a whole, favours compounds with a hit. Of some 83,000 tested, about 20% had one in any assay.
Reported values of growth for individual entries
endpoint: growth (%)

N#CC1(c2ccccc2)CCN(Cc2ccccc2)CC1 :: 121
Nc1ccc(Cl)cc1 :: 88.3
Cc1c(C)c([N+](=O)[O-])c(C)c(C)c1[N+](=O)[O-] :: 113
N#CC1C(C#N)C2CCC1C1C2N1c1ccccc1 (stereo unspecified) :: 87.1
CC[C@H](C)[C@H](NC(=O)N[C@@H](C)c1ccccc1)C(=O)N(C)[C@H](C[C@@H](OC(C)=O)c1nc(C(=O)N[C@@H](Cc2ccccc2)C[C@H](C)C(=O)OC)cs1)C(C)C :: -0.0971
O=C(CCCC1CCCCC1)OCC(Cl)(Cl)Cl :: 101
C[C@]12CC[C@H]3[C@@H](C[C@@H]4SC(Nc5ccccc5)=N[C@@]45CC(O)CC[C@]35C)[C@@H]1CCC2O (stereo partly specified) :: -5.43
O=C(CC1(O)C(=O)N(Cc2ccccc2)c2ccc(F)cc21)c1ccc(C(=O)NCC2CCC3(CC2)OOC2(CCCCC2)OO3)cc1 (stereo unspecified) :: -62.1
O=C1NC(=O)C(=Cc2ccc(OCCCCC3CCCCC3)c(Cl)c2)C(=O)N1 :: 96.2
CCOC(=O)[C@@H](C)C[C@H](Cc1ccccc1)NC(=O)c1nc([C@@H](C[C@H](C(C)C)N(C)C(=O)[C@@H](NC(=O)[C@H]2CCCCN2C)C(C)C)OC(C)=O)sc1CCOCc1ccccc1 :: -11.2
Clc1ccc(CO/N=C(\Cn2ccnc2)c2ccc(Cl)cc2Cl)c(Cl)c1 :: 30.4
Clc1cccc(Cl)c1Cl :: 93.8
Cc1ccc(C(=O)NCCCOc2ccc(N)cc2Cl)cc1S(=O)(=O)F :: 75.1
C=CC12CCN(CC1)C(C(O)c1ccnc3ccc(OC)cc13)C2 (stereo unspecified) :: 52.7
C=C1C(=O)O[C@H]2[C@H]1CC/C(COC(=O)C(=O)c1cn(Cc3ccccc3)c3ccccc13)=C\CC[C@@]1(C)O[C@@H]21 :: -75.2
CN(C)C(=O)Oc1ccccc1 :: 89.1
O=C([O][Hg][CH2]C1COCC([CH2][Hg][O]C(=O)c2ccccc2)O1)c1ccccc1 (stereo unspecified) :: 92
C=CCn1cc(C=C2C(=O)N(C)C(=O)N(C)C2=O)c2ccccc21 :: 78.7
COc1ccc(/C=C\c2cc(OC)c(OC)c(OC)c2)cc1NC(=O)/C=C/c1ccc(OC)c(OC)c1 :: 16
CC1(C)CN1P(=O)(N1CC1(C)C)N1CC1(C)C (stereo unspecified) :: 72.7
Cc1cccc(N2CCN(C(C)C#N)CC2)c1 (stereo unspecified) :: 106
CC(C)=CCC/C(C)=C/C=N\N=C(/N)N[N+](=O)[O-] :: 89.8
CCOC(=S)S[C@H]1C[C@@H]2[C@H](CC[C@]3(C)C(=O)CC[C@@H]23)[C@@]2(C)CCC(=O)C=C12 :: 93.1
COC(=O)[C@H](Cc1c[nH]c2ccccc12)NC(=O)[C@@H](OC)[C@@H]1Cc2cc3cc(OC4CC(OC5CC(O)C(O)C(C)O5)C(O)C(C)O4)c(C)c(O)c3c(O)c2C(=O)[C@H]1OC1CC(OC2CC(OC3CC(C)(O)C(O)C(C)O3)C(O)C(C)O2)C(O)C(C)O1 (stereo partly specified) :: -88.5
CC(=O)ONc1ccc([N+](=O)[O-])c(C(F)(F)F)c1 :: 82.9
COC(=O)[C@@H](C)C[C@H](Cc1ccccc1)NC(=O)c1csc([C@@H](C[C@H](C(C)C)N(C)C(=O)C2(NC(=O)[C@H]3CCCCN3C)CCC2)OC(C)=O)n1 :: 28.5
O=C1CCC2(O)[C@@H]3Cc4ccc(O)c5c4[C@]2(CCN3Cc2ccoc2)C1O5 (stereo partly specified) :: 85.1
Nc1ccc(OCCNS(=O)(=O)c2cccc(S(=O)(=O)F)c2)c(Cl)c1 :: 50.5
COC(=O)[C@@H](C)C[C@H](Cc1ccccc1)NC(=O)c1csc([C@@H](C[C@H](C(C)C)N(C)C(=O)C2(NC(=O)[C@H]3CCCCN3C)CC2)OC(C)=O)n1 :: 26.5
CCOc1ccccc1C(=O)OCC(Cl)(Cl)Cl :: 98.3
Cc1ccc(Nc2nc3c(s2)C2=CC[C@@H]4[C@H](CC[C@]5(C)C(=O)CC[C@@H]45)[C@@]2(C)CC3)cc1 :: 28.7
C/C1=C/C(=O)O[C@@H]2C[C@@H](CC[C@H](C)/C=C\C=C\CC1)O[C@@](O)([C@@H]1CSC(=O)N1CO)C2 :: -41.5
CCn1c2ccccc2c2cc(C(=O)c3ccc(C)c4ccccc34)ccc21 :: 51
c1cnc2[nH]cc(-c3csc(-c4cn(CCCCN5CCCCC5)c5ccccc45)n3)c2c1 :: 70.3
Cn1cc(-c2csc(-c3cn(CCN4CCOCC4)c4ccccc34)n2)c2cccnc21 :: 74.5
Clc1ccc(CSC(Cn2ccnc2)c2ccc(Cl)cc2Cl)cc1 (stereo unspecified) :: 57.9
